The following compounds are listed with their measured Kd values.
Molecular target: Cox13 (Saccharomyces cerevisiae)
Construct: 15 kDa; homodimer
Sequence (P32799 1-129): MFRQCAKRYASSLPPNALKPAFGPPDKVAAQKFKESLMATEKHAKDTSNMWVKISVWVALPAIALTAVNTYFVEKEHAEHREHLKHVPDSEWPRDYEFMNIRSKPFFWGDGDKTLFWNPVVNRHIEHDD
Assay: 1H-15N HSQC NMR titration (chemical shift perturbation, global fit)
Assay type: binding
Numeric only. Scale: mM

>>> df
                            substancesmiles  observationtype  unitstext  measured
0  Nc1ncnc2c1ncn2[C@@H]1O[C@H](COP(=O)(O)OP(=O)(O)O)[C@@H](O)[C@H]1O               Kd         mM        17

Then there is this compound:
What value of Kd on Cox13 (Saccharomyces cerevisiae) does `Nc1ncnc2c1ncn2[C@@H]1O[C@H](COP(=O)(O)OP(=O)(O)OP(=O)(O)O)[C@@H](O)[C@H]1O` have?
15
